Experiment: A CellTox Green Cytotoxicity Assay to monitor cytotoxicity in HEK293 cells - 24 hour (AID 1224875); further: nearly all actives have a fitted effect of over 45% in size
Settings: CellTox Green fluorescence; series mostly up to 76.8 µM
Results filed as inconclusive are left out. Calls of active or inactive are those of the source. The call rests on the fitted dose curve; in most records, active means well fitted activation curve with a large enough effect in the repeat runs; inconclusive means weak or mixed curves; inactive means flat fitted curve, though single readings scatter.
Answer with one of the outcomes active, inactive

CC(C)(C)c1ccc(CSc2cnn(C(C)(C)C)c(=O)c2Cl)cc1 ... inactive

Task: Given `ClC(Cl)=C(Cl)Cl` , state the outcome it received in this test.
Output: inactive

Task: How about this molecule: N#CCCC(Br)(C#N)CBr (centres undefined)
Output: active

Task: How about this molecule: `CCCCCCCCCCBr`
Output: inactive

Task: How about this molecule: C=CCC1=C(C)C(OC(=O)C2C(C=C(C)C)C2(C)C)CC1=O (centres undefined)
Output: active

Task: How about this molecule: `Cc1cc(C)cc(OP(=O)(Oc2cc(C)cc(C)c2)Oc2cc(C)cc(C)c2)c1`
Output: inactive

Task: How about this molecule: `CC(C)CCCCCCCOP(=O)(Oc1ccccc1)Oc1ccccc1`
Output: inactive

Task: How about this molecule: COC(=O)N(C(=O)N1COC2(C(=O)OC)Cc3cc(Cl)ccc3C2=N1)c1ccc(OC(F)(F)F)cc1 (centres undefined)
Output: inactive

Task: How about this molecule: `O=C(O)c1cc[c]([Hg][Cl])cc1`
Output: active

Task: How about this molecule: `O=C(Cl)c1ccc(Cl)cc1`
Output: inactive

Task: How about this molecule: `CC[C@H](C)[C@H]1O[C@]2(C=C[C@@H]1C)C[C@@H]1C[C@@H](C/C=C(\C)[C@@H](O[C@H]3C[C@H](OC)[C@@H](O[C@H]4C[C@H](OC)[C@@H](O)[C@H](C)O4)[C@H](C)O3)[C@@H](C)/C=C/C=C3\CO[C@@H]4[C@H](O)C(C)=C[C@@H](C(=O)O1)[C@]34O)O2`
Output: inactive

Task: How about this molecule: `O=c1[nH]c2ccccc2n1CCCN1CCC(n2c(=O)[nH]c3cc(Cl)ccc32)CC1`
Output: inactive

Task: How about this molecule: `O=C(Nc1ccc2[nH]ccc2c1)c1cc2cc(F)ccc2n1Cc1cccc(F)c1`
Output: inactive

Task: How about this molecule: `COc1ccc(N)cc1N`
Output: inactive

Task: How about this molecule: `CCN(CC)c1c([N+](=O)[O-])cc(C(F)(F)F)c(N)c1[N+](=O)[O-]`
Output: inactive

Task: How about this molecule: CCCCCCCCCCCCCN1CC(C)OC(C)C1 (centres undefined)
Output: inactive

Task: How about this molecule: `CCCCCCCCc1ccc(O)cc1`
Output: active

Task: How about this molecule: c1ccc(OCC2CO2)cc1 (centres undefined)
Output: inactive

Task: How about this molecule: `O=c1[nH]c2ccccc2n1C1CCN(CCCC(c2ccc(F)cc2)c2ccc(F)cc2)CC1`
Output: inactive

Source: PubChem BioAssay (Tox21)
